Sourced from ChEMBL document CHEMBL4765458

# Test system: HeLa
# method description: Cytotoxicity against human HeLa cells assessed as reduction in cell viability measured after 48 hrs by MTT assay
# Format: functional, cell-based
Quick reference: IC50 of the listed items.
property: IC50 (µM)

INSERT INTO results (compound, unit_string, censoring_sign, value_reported) VALUES
  ('C[C@H](C(=O)NCCC[Se]C(F)(F)F)c1cccc(C(=O)c2ccccc2)c1', 'µM', '=', 17.5),
  ('CC1=C(CC(=O)O)c2cc(F)ccc2/C1=C\c1ccc([S+](C)[O-])cc1 (stereo not given)', 'µM', '>', 50),
  ('C[C@H](C(=O)NCCC[Se]C#N)c1cccc(C(=O)c2ccccc2)c1', 'µM', '=', 18.5),
  ('CC(C(=O)NCCC[Se]C#N)c1ccc(-c2ccccc2)c(F)c1 (stereo not given)', 'µM', '=', 32.4),
  ('COc1ccc2cc([C@H](C)C(=O)NCCC[Se]C(F)(F)F)ccc2c1', 'µM', '=', 22.5);

----------
Quick reference: IC50 of the listed items.
# Tested on: HeLa
# method description: Cytotoxicity against human HeLa cells assessed as reduction in cell viability measured after 24 hrs by MTT assay
# Format: functional, cell-based
property: IC50 (µM)

INSERT INTO results (compound, property, censoring_sign, value_reported) VALUES
  ('Cc1cccc(Nc2ccccc2C(=O)NCCC[Se]C(F)(F)F)c1C', 'IC50', '=', 24.5),
  ('CC1=C(CC(=O)NCCC[Se]C(F)(F)F)c2cc(F)ccc2/C1=C\c1ccc([S+](C)[O-])cc1 (centres undefined)', 'IC50', '=', 24.3),
  ('O=c1[nH]cc(F)c(=O)[nH]1', 'IC50', '=', 20.6),
  ('COc1ccc2c(c1)c(CC(=O)O)c(C)n2C(=O)c1ccc(Cl)cc1', 'IC50', '>', 50),
  ('CC1=C(CC(=O)O)c2cc(F)ccc2/C1=C\c1ccc([S+](C)[O-])cc1 (centres undefined)', 'IC50', '>', 50),
  ('CC(C)Cc1ccc(C(C)C(=O)NCCC[Se]C(F)(F)F)cc1 (centres undefined)', 'IC50', '=', 11.5),
  ('CC(C(=O)O)c1cccc(C(=O)c2ccccc2)c1 (centres undefined)', 'IC50', '>', 50),
  ('CC(C(=O)NCCC[Se]C#N)c1ccc(-c2ccccc2)c(F)c1 (centres undefined)', 'IC50', '=', 36.2),
  ('CC(=O)Oc1ccccc1C(=O)NCCC[Se]C(F)(F)F', 'IC50', '=', 28.7),
  ('CC(C)Cc1ccc(C(C)C(=O)NCCC[Se]C#N)cc1 (centres undefined)', 'IC50', '=', 13.5),
  ('Cc1cccc(Nc2ccccc2C(=O)NCCC[Se]C#N)c1C', 'IC50', '=', 26.5),
  ('CC(C(=O)NCCC[Se]C(F)(F)F)c1ccc(-c2ccccc2)c(F)c1 (centres undefined)', 'IC50', '=', 30.2),
  ('COc1ccc2cc([C@H](C)C(=O)NCCC[Se]C(F)(F)F)ccc2c1', 'IC50', '=', 16.5),
  ('CCc1cccc2c3c([nH]c12)C(CC)(CC(=O)NCCC[Se]C(F)(F)F)OCC3 (centres undefined)', 'IC50', '=', 22.8),
  ('N#C[Se]CCCNC(=O)c1ccccc1Nc1cccc(C(F)(F)F)c1', 'IC50', '=', 38.2),
  ('C[C@H](C(=O)NCCC[Se]C#N)c1cccc(C(=O)c2ccccc2)c1', 'IC50', '=', 25.6),
  ('C[C@H](C(=O)NCCC[Se]C(F)(F)F)c1cccc(C(=O)c2ccccc2)c1', 'IC50', '=', 19.6),
  ('CC(=O)Oc1ccccc1C(=O)NCCC[Se]C#N', 'IC50', '=', 31.4),
  ('O=C(NCCC[Se]C(F)(F)F)c1ccccc1Nc1cccc(C(F)(F)F)c1', 'IC50', '=', 33.2),
  ('COc1ccc2c(c1)c(CC(=O)NCCC[Se]C#N)c(C)n2C(=O)c1ccc(Cl)cc1', 'IC50', '=', 32.1),
  ('COc1ccc2cc([C@H](C)C(=O)NCCC[Se]C#N)ccc2c1', 'IC50', '=', 21.5),
  ('CCc1cccc2c3c([nH]c12)C(CC)(CC(=O)NCCC[Se]C#N)OCC3 (centres undefined)', 'IC50', '=', 26.8),
  ('CC1=C(CC(=O)NCCC[Se]C#N)c2cc(F)ccc2/C1=C\c1ccc([S+](C)[O-])cc1 (centres undefined)', 'IC50', '=', 28.4),
  ('COc1ccc2c(c1)c(CC(=O)NCCC[Se]C(F)(F)F)c(C)n2C(=O)c1ccc(Cl)cc1', 'IC50', '=', 30.1);

----------
# Test system: SW480
# method description: Cytotoxicity against human SW480 cells assessed as reduction in cell viability measured after 72 hrs by MTT assay
# Assay type: functional, cell-based
# condition details: SW480, 72 h
Rule for this label: fulfilled means IC50 is less than 10 µM; not fulfilled means IC50 is at least 10 µM.

INSERT INTO results (compound, target_system, group_label) VALUES
  ('C[C@H](C(=O)NCCC[Se]C(F)(F)F)c1cccc(C(=O)c2ccccc2)c1', 'SW480', 'fulfilled'),
  ('N#C[Se]CCCNC(=O)c1ccccc1Nc1cccc(C(F)(F)F)c1', 'SW480', 'not fulfilled'),
  ('C[C@H](C(=O)NCCC[Se]C#N)c1cccc(C(=O)c2ccccc2)c1', 'SW480', 'fulfilled'),
  ('CC(C)Cc1ccc(C(C)C(=O)NCCC[Se]C(F)(F)F)cc1 (stereo not drawn)', 'SW480', 'fulfilled'),
  ('CC1=C(CC(=O)O)c2cc(F)ccc2/C1=C\c1ccc([S+](C)[O-])cc1 (stereo not drawn)', 'SW480', 'not fulfilled'),
  ('CC(=O)Oc1ccccc1C(=O)NCCC[Se]C#N', 'SW480', 'fulfilled'),
  ('Cc1cccc(Nc2ccccc2C(=O)NCCC[Se]C#N)c1C', 'SW480', 'not fulfilled'),
  ('COc1ccc2c(c1)c(CC(=O)O)c(C)n2C(=O)c1ccc(Cl)cc1', 'SW480', 'not fulfilled'),
  ('O=C(NCCC[Se]C(F)(F)F)c1ccccc1Nc1cccc(C(F)(F)F)c1', 'SW480', 'not fulfilled'),
  ('CCc1cccc2c3c([nH]c12)C(CC)(CC(=O)NCCC[Se]C(F)(F)F)OCC3 (stereo not drawn)', 'SW480', 'not fulfilled'),
  ('CC(C(=O)NCCC[Se]C#N)c1ccc(-c2ccccc2)c(F)c1 (stereo not drawn)', 'SW480', 'not fulfilled'),
  ('COc1ccc2c(c1)c(CC(=O)NCCC[Se]C(F)(F)F)c(C)n2C(=O)c1ccc(Cl)cc1', 'SW480', 'not fulfilled'),
  ('Cc1cccc(Nc2ccccc2C(=O)NCCC[Se]C(F)(F)F)c1C', 'SW480', 'not fulfilled'),
  ('CC(C(=O)NCCC[Se]C(F)(F)F)c1ccc(-c2ccccc2)c(F)c1 (stereo not drawn)', 'SW480', 'not fulfilled'),
  ('COc1ccc2cc([C@H](C)C(=O)NCCC[Se]C(F)(F)F)ccc2c1', 'SW480', 'not fulfilled'),
  ('CC(C)Cc1ccc(C(C)C(=O)NCCC[Se]C#N)cc1 (stereo not drawn)', 'SW480', 'fulfilled'),
  ('CC(=O)Oc1ccccc1C(=O)NCCC[Se]C(F)(F)F', 'SW480', 'fulfilled'),
  ('CCc1cccc2c3c([nH]c12)C(CC)(CC(=O)NCCC[Se]C#N)OCC3 (stereo not drawn)', 'SW480', 'not fulfilled'),
  ('CC1=C(CC(=O)NCCC[Se]C#N)c2cc(F)ccc2/C1=C\c1ccc([S+](C)[O-])cc1 (stereo not drawn)', 'SW480', 'not fulfilled'),
  ('COc1ccc2cc([C@H](C)C(=O)NCCC[Se]C#N)ccc2c1', 'SW480', 'not fulfilled'),
  ('CC(C(=O)O)c1cccc(C(=O)c2ccccc2)c1 (stereo not drawn)', 'SW480', 'not fulfilled'),
  ('COc1ccc2c(c1)c(CC(=O)NCCC[Se]C#N)c(C)n2C(=O)c1ccc(Cl)cc1', 'SW480', 'not fulfilled');

----------
# Test system: HeLa
# method description: Cytotoxicity against human HeLa cells assessed as reduction in cell viability measured after 48 hrs by MTT assay
# Assay type: functional, cell-based
Field: class. Source value: IC50. Ranges: lo (below 20 µM), mid (20 µM to below 30 µM), hi (30 µM or more)

INSERT INTO results (molecule, group_label) VALUES
  ('CC1=C(CC(=O)NCCC[Se]C#N)c2cc(F)ccc2/C1=C\c1ccc([S+](C)[O-])cc1 (stereo not given)', 'lo'),
  ('COc1ccc2c(c1)c(CC(=O)NCCC[Se]C#N)c(C)n2C(=O)c1ccc(Cl)cc1', 'mid'),
  ('Cc1cccc(Nc2ccccc2C(=O)NCCC[Se]C#N)c1C', 'hi'),
  ('CC(C)Cc1ccc(C(C)C(=O)NCCC[Se]C(F)(F)F)cc1 (stereo not given)', 'lo'),
  ('COc1ccc2c(c1)c(CC(=O)O)c(C)n2C(=O)c1ccc(Cl)cc1', 'hi'),
  ('CC(C(=O)NCCC[Se]C(F)(F)F)c1ccc(-c2ccccc2)c(F)c1 (stereo not given)', 'mid'),
  ('CC(C)Cc1ccc(C(C)C(=O)NCCC[Se]C#N)cc1 (stereo not given)', 'mid'),
  ('Cc1cccc(Nc2ccccc2C(=O)NCCC[Se]C(F)(F)F)c1C', 'mid'),
  ('CC1=C(CC(=O)NCCC[Se]C(F)(F)F)c2cc(F)ccc2/C1=C\c1ccc([S+](C)[O-])cc1 (stereo not given)', 'lo');
